pIC50, EGFR (Homo sapiens (Human)): measured values
Give bare numbers, as −log10 of the molar value.

# compound, pIC50
rows = [
    ("Cc1c(Oc2ccc3c(c2)ncn3C)ccc(Nc2ncnc3cnc(N4CC5CC4CO5)nc23)c1F (stereo not shown)", 5.39),
]

// moving on: another record for pIC50
Task: Respond only with pIC50 recorded for CN(CC(C)(C)O)c1ncc2ncnc(Nc3ccc(Oc4ccc5c(c4)ncn5C)c(Cl)c3)c2n1
Output: 5.35

====

Could you please report measured IC50 for the items listed next?
Target: ErbB2 insYVMA (HER2-YVMA, SEQ ID NO: 2) (Homo sapiens, UniProt P04626, INS775YVMA/P1170A)
Sequence (P04626 with tags, fused parts or gaps INS775YVMA/P1170A limits assumed): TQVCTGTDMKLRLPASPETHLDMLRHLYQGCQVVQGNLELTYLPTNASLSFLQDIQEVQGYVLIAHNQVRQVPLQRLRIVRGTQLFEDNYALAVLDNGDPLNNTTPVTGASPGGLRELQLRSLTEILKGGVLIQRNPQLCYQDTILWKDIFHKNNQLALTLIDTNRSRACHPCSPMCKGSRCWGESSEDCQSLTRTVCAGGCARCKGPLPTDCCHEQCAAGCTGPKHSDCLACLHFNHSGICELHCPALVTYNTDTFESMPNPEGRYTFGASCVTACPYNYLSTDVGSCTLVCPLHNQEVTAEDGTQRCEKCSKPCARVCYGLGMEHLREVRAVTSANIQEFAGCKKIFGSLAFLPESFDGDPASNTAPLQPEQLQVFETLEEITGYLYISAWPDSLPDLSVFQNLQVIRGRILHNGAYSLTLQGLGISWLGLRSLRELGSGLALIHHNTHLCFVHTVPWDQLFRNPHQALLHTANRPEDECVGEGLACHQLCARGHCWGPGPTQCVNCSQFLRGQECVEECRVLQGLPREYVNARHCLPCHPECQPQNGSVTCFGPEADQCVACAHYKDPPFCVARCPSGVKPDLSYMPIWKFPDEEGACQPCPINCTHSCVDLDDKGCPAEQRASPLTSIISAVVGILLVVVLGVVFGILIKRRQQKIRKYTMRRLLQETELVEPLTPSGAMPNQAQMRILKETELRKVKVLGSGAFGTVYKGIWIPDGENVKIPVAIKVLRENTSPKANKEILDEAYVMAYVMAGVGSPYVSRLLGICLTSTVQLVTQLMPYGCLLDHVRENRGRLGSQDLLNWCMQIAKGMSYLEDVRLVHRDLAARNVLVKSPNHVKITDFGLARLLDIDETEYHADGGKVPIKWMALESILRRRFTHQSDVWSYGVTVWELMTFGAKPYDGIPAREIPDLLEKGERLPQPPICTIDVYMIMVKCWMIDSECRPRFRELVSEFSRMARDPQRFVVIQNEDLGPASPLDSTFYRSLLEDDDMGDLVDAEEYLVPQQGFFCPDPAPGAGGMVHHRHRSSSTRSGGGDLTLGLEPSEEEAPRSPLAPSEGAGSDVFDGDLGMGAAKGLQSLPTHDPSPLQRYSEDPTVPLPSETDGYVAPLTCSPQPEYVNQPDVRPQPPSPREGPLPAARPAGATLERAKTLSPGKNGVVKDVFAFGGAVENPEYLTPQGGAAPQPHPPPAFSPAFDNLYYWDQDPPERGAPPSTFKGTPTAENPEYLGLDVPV
Assay: biochemical
Conditions: ErbB2 insYVMA enzyme assay; read-out: Assay 1 IC50
Answers are plain numbers, in nM.

Reference set, count: 3
# smiles.string, unit.abbreviation, IC50
rows = [
    ("Cc1cc(Nc2ncnc3cnc(N4CCC(C)(O)CC4)nc23)c(F)cc1Oc1ccc2c(c1)ncn2C", "nM", 28.8),
    ("Cc1cc(Nc2ncnc3cnc(N[C@H]4CCOC4)nc23)ccc1Oc1ccc2c(c1)ncn2C", "nM", 7),
    ("Cc1c(Oc2ccc3c(c2)ncn3C)ccc(Nc2ncnc3cnc(N4CC[C@H](O)C4)nc23)c1F", "nM", 13.3),
]

// moving on: another record for IC50
Task: Respond only with IC50 recorded for Cc1cc(Nc2ncnc3cnc(N[C@@H]4CCNC[C@@H]4F)nc23)ccc1Oc1ccc2c(c1)ncn2C
Output: 12.4
